# assay.procedure: Human microsome stability assay
# Type: in vitro ADME
# conditions.used: human liver microsomes 0.5 mg/mL, 37° C., pH 7.4, NADPH regenerating system
Catalogue of compounds with associated Clearance of Human microsome

compound	unit.label	Clearance of Human microsome
N[C@@H]1CC(=O)N(c2ccc(S(=O)(=O)N3CCN(c4cc(C(F)(F)[C@H]5CC[C@H](C(=O)NNC(=O)C6CCNCC6)CC5)cc(Cl)n4)CC3)cc2)C1 [Example 051]	mL/min/kg	8.70
N[C@@H]1CC(=O)N(c2ccc(S(=O)(=O)N3CCN(c4cc(C(F)(F)[C@H]5CC[C@H](C(=O)NC6CNCC6O)CC5)cc(Cl)n4)CC3)cc2)C1 (stereo partly drawn) [Example 006]	mL/min/kg	6.15
NCCCNC(=O)[C@H]1CC[C@H](C(F)(F)c2cc(Cl)nc(N3CCN(S(=O)(=O)c4ccc(N5CC(N6CCNCC6)CC5=O)cc4)CC3)c2)CC1 (stereo partly drawn) [Example 060]	mL/min/kg	8.12
CN[C@@H]1CC(=O)N(c2ccc(S(=O)(=O)N3CCN(c4cc(C(F)(F)[C@H]5CC[C@H](C(=O)NCCCN)CC5)cc(Cl)n4)CC3)cc2)C1 [Example 069]	mL/min/kg	10.85
NCCCNC(=O)C1CCC(C(F)(F)c2cc(Cl)nc(N3CCN(S(=O)(=O)c4ccc(N5C[C@H](N)CC5=O)cc4)CC3)c2)C1 (stereo partly drawn) [Example 035]	mL/min/kg	8.90
CN(C)CCCNC(=O)c1ccc(C(F)(F)c2cc(Cl)nc(N3CCN(S(=O)(=O)c4ccc(N5C[C@H](N)CC5=O)cc4)CC3)c2)nc1 [Example 027]	mL/min/kg	6.15
CN(CCN)C(=O)[C@H]1CC[C@H](C(F)(F)c2cc(Cl)nc(N3CCN(S(=O)(=O)c4ccc(N5C[C@H](N)CC5=O)cc4)CC3)c2)CC1 [Example 030]	mL/min/kg	6.90
NCCNC(=O)c1cnc(C(F)(F)c2cc(Cl)nc(N3CCN(S(=O)(=O)c4ccc(N5C[C@H](N)CC5=O)cc4)CC3)c2)cn1 [Example 024]	mL/min/kg	11.22
NCCCNC(=O)c1cnc(C(F)(F)c2cc(Cl)nc(N3CCN(S(=O)(=O)c4ccc(N5C[C@H](N)CC5=O)cc4)CC3)c2)cn1 [Example 021]	mL/min/kg	10.85
C[C@H]1CNC[C@@H]1NC(=O)[C@H]1CC[C@H](C(F)(F)c2cc(Cl)nc(N3CCN(S(=O)(=O)c4ccc(N5C[C@H](N)CC5=O)cc4)CC3)c2)CC1 [Example 068]	mL/min/kg	9.49
NCC(O)CNC(=O)c1ccc(C(F)(F)c2cc(Cl)nc(N3CCN(S(=O)(=O)c4ccc(N5CC(N)CC5=O)cc4)CC3)c2)cc1 (stereo not drawn) [Example 018]	mL/min/kg	6.15
N[C@@H]1CC(=O)N(c2ccc(S(=O)(=O)N3CCN(c4cc(C(F)(F)[C@H]5CC[C@H](C(=O)NCCN6CCCC6)CC5)cc(Cl)n4)CC3)cc2)C1 [Example 009]	mL/min/kg	11.13

* * *

Catalogue of compounds with associated Clearance of Human microsome
# assay.procedure: Human microsome stability assay
# Type: in vitro ADME
# conditions.used: human liver microsomes 0.5 mg/mL, 37° C., pH 7.4, NADPH regenerating system

compound	Clearance of Human microsome, L/h/kg
N[C@@H]1CC(=O)N(c2ccc(S(=O)(=O)N3CCN(c4cc(C(F)(F)c5ccc(C(=O)NCCCNCCO)nc5)cc(Cl)n4)CC3)cc2)C1	0.369
CC1(N)CCN(C(=O)[C@H]2CC[C@H](C(F)(F)c3cc(Cl)nc(N4CCN(S(=O)(=O)c5ccc(N6C[C@H](N)CC6=O)cc5)CC4)c3)CC2)CC1	0.369
COC(CN)CNC(=O)[C@H]1CC[C@H](C(F)(F)c2cc(Cl)nc(N3CCN(S(=O)(=O)c4ccc(N5C[C@H](N)CC5=O)cc4)CC3)c2)CC1 (some centres unmarked)	0.544
N[C@@H]1C[C@H](N)CN(CCCNC(=O)[C@H]2CC[C@H](C(F)(F)c3cc(Cl)nc(N4CCN(S(=O)(=O)c5ccc(N6C[C@H](N)CC6=O)cc5)CC4)c3)CC2)C1	0.443
NCCNCCNC(=O)[C@H]1CC[C@H](C(F)(F)c2cc(Cl)nc(N3CCN(S(=O)(=O)c4ccc(N5C[C@H](N)CC5=O)cc4)CC3)c2)CC1	0.369

Values from patent US20240417387A1
